Each recorded value in this set is attributed to patent US20260317319A1.

target: UniProtKB P28223; assay: cell-based; type: cell-based; design: expressed in transfected cells; host or cells: HEK293, stably transfected; conditions: HEK293, agonist, Ca2+ flux, HEK293, max dose; read-out: 5-HT2A % Act @ Max Dose
Sequence (P28223 whole entry): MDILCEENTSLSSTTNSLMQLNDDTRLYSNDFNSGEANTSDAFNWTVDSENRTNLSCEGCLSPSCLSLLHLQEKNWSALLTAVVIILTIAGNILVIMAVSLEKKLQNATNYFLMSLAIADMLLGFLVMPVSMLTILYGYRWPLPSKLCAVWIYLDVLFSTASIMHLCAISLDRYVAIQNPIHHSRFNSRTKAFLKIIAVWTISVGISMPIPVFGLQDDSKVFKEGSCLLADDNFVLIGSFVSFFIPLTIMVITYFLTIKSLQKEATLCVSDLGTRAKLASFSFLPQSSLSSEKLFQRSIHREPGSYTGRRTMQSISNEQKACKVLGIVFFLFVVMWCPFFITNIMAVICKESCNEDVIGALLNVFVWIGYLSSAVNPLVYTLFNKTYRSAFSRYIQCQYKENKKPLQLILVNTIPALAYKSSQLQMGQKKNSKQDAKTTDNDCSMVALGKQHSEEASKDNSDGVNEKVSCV
Test Readout: Emax (%)
Response body: numeric value in %, unit text excluded.

What does the record list as Emax for CCN(CC)C(=O)[C@@H]1C=C2c3cccc4[nH]c(Br)c(c34)C[C@H]2N(CCCF)C1 ? 75.4

What does the record list as Emax for CCN(CC)C(=O)[C@H]1C=C2c3cccc4[nH]cc(c34)C[C@H]2N(CCCF)C1 ? 90.3

What does the record list as Emax for C=CCN1C[C@H](C(=O)N2[C@@H](C)C[C@@H]2C)C=C2c3cccc4[nH]cc(c34)C[C@H]21 ? 81.1

What does the record list as Emax for CCCN1C[C@H](C(=O)N(CC)CC)C=C2c3cccc4[nH]cc(c34)C[C@H]21 ? 97

What does the record list as Emax for CCN(CC)C(=O)[C@@H]1C=C2c3cccc4[nH]cc(c34)C[C@H]2N(CCc2ccc(OC)cc2)C1 ? 51.2

What does the record list as Emax for CCN(CC)C(=O)[C@@H]1C=C2c3cccc4[nH]cc(c34)C[C@H]2N(Cc2ccccn2)C1 ? 64.5

What does the record list as Emax for C=CCN1C[C@@H](C(=O)N[C@H](C)CC)C=C2c3cccc4[nH]cc(c34)C[C@H]21 ? 87.5

====

For each record, write down the corresponding half-life.
test: in vitro; type: in vitro ADME, human; conditions: human, microsomes; HLM 0.50 mg/mL, NADPH 1 mM, 1 μM compound, pH 7.4, 37° C., 60 min; read-out: half-life (t1/2)
Response body: numeric value in min, unit text excluded.

What does the record list as half-life for CCCN(CC)C(=O)[C@H]1C=C2c3cccc4[nH]cc(c34)C[C@H]2N(Cc2ccccc2)C1 [Compound 86a] ? 14.6

What does the record list as half-life for CCN(CC)C(=O)[C@@H]1C=C2c3cccc4[nH]cc(c34)C[C@H]2N(Cc2cnco2)C1 ? 39.6

What does the record list as half-life for CCN(CC)C(=O)[C@@H]1C=C2c3cccc4[nH]cc(c34)C[C@H]2N(Cc2cccc(C)c2)C1 ? 15.2

What does the record list as half-life for CCCN(CC)C(=O)[C@@H]1C=C2c3cccc4[nH]cc(c34)C[C@H]2N(Cc2cccc(OC)c2)C1 ? 9.1

What does the record list as half-life for CCN(CC)C(=O)[C@@H]1C=C2c3cccc4[nH]cc(c34)C[C@H]2N(Cc2cccc(F)c2)C1 ? 17.8

What does the record list as half-life for CCN(CC)C(=O)[C@@H]1C=C2c3cccc4[nH]cc(c34)C[C@H]2N(Cc2ccon2)C1 ? 25.5

What does the record list as half-life for CCN(CC)C(=O)[C@@H]1C=C2c3cccc4[nH]cc(c34)C[C@H]2N(Cc2cocn2)C1 ? 30.4

====

Test: in vitro
Assay type: in vitro ADME, mouse
Details: mouse, microsomes; MLM (male CD-1) 0.50 mg/mL, NADPH 1 mM, 1 μM compound, pH 7.4, 37° C., 60 min; read-out: Intrinsic clearance (Clint)
Excerpt: MLM Stability Pooled MLM from male CD-1 mice (BIOIVT M00501) were used.
Test Readout: microsomal CLint (µL/min/mg)
Response body: numeric value in µL/min/mg, unit text excluded.

What does the record list as microsomal CLint for CCN(C)C(=O)[C@@H]1C=C2c3cccc4[nH]cc(c34)C[C@H]2N(Cc2cccc(OC)c2)C1 [Compound 92] ? 321

What does the record list as microsomal CLint for CCN(CC)C(=O)[C@@H]1C=C2c3cccc4[nH]cc(c34)C[C@H]2N(Cc2cccc(C)c2)C1 [Compound 98] ? 470

What does the record list as microsomal CLint for CN(C)C(=O)[C@@H]1C=C2c3cccc4[nH]cc(c34)C[C@H]2N(Cc2ccccc2)C1 [Compound 102] ? 111

What does the record list as microsomal CLint for CCN(CC)C(=O)[C@@H]1C=C2c3cccc4[nH]cc(c34)C[C@H]2N(Cc2ccc(C)cc2)C1 [Compound 97] ? 511

What does the record list as microsomal CLint for COc1cccc(CN2C[C@H](C(=O)N3[C@@H](C)C[C@@H]3C)C=C3c4cccc5[nH]cc(c45)C[C@H]32)c1 [Compound 94] ? 1340

What does the record list as microsomal CLint for CCN(CC)C(=O)[C@@H]1C=C2c3cccc4[nH]cc(c34)C[C@H]2N(Cc2ccccc2)C1 [Compound 82] ? 553

What does the record list as microsomal CLint for CCN(CC)C(=O)[C@@H]1C=C2c3cccc4[nH]cc(c34)C[C@H]2N(Cc2cccc(F)c2)C1 [Compound 52] ? 338

What does the record list as microsomal CLint for O=C([C@@H]1C=C2c3cccc4[nH]cc(c34)C[C@H]2N(Cc2ccccc2)C1)N1CCCC1 [Compound 84] ? 146

What does the record list as microsomal CLint for CCN(C)C(=O)[C@H]1C=C2c3cccc4[nH]cc(c34)C[C@H]2N(Cc2ccccc2)C1 [Compound 85a] ? 848

What does the record list as microsomal CLint for CCNC(=O)[C@@H]1C=C2c3cccc4[nH]cc(c34)C[C@H]2N(Cc2cccc(OC)c2)C1 [Compound 63] ? 1610

What does the record list as microsomal CLint for CCN(C)C(=O)[C@@H]1C=C2c3cccc4[nH]cc(c34)C[C@H]2N(CC2CCCC2)C1 [Compound 103] ? 277

What does the record list as microsomal CLint for CCN(CC)C(=O)[C@@H]1C=C2c3cccc4[nH]cc(c34)C[C@H]2N(Cc2cccc(C#N)c2)C1 [Compound 76] ? 576

What does the record list as microsomal CLint for [2H]C([2H])(c1cccc(OC)c1)N1C[C@H](C(=O)N(CC)CC)C=C2c3cccc4[nH]cc(c34)C[C@H]21 [Compound 68] ? 436

What does the record list as microsomal CLint for CCN(CC)C(=O)[C@@H]1C=C2c3cccc4[nH]cc(c34)C[C@H]2N(Cc2ccon2)C1 [Compound 70] ? 154

What does the record list as microsomal CLint for CCN(CC)C(=O)[C@@H]1C=C2c3cccc4[nH]cc(c34)C[C@H]2N(Cc2cnco2)C1 [Compound 75] ? 83.1

What does the record list as microsomal CLint for CCN(CC)C(=O)[C@@H]1C=C2c3cccc4[nH]cc(c34)C[C@H]2N(Cc2ccc3ccccc3c2)C1 [Compound 100] ? 117

What does the record list as microsomal CLint for CCN(CC)C(=O)[C@@H]1C=C2c3cccc4[nH]cc(c34)C[C@H]2N(Cc2ccc(F)c(F)c2)C1 [Compound 54] ? 242

What does the record list as microsomal CLint for CCN(CC)C(=O)[C@@H]1C=C2c3cccc4[nH]cc(c34)C[C@H]2N(Cc2cccc(O)c2)C1 [Compound 62] ? 244

What does the record list as microsomal CLint for CCN(CC)C(=O)[C@@H]1C=C2c3cccc4[nH]cc(c34)C[C@H]2N(Cc2ccncc2)C1 [Compound 51] ? 480

What does the record list as microsomal CLint for CCCN(CC)C(=O)[C@@H]1C=C2c3cccc4[nH]cc(c34)C[C@H]2N(Cc2cccc(OC)c2)C1 [Compound 93] ? 600

What does the record list as microsomal CLint for C[C@H]1C[C@H](C)N1C(=O)[C@@H]1C=C2c3cccc4[nH]cc(c34)C[C@H]2N(Cc2ccccc2)C1 [Compound 87] ? 681

What does the record list as microsomal CLint for CCN(C)C(=O)[C@@H]1C=C2c3cccc4[nH]cc(c34)C[C@H]2N(Cc2ccccc2)C1 [Compound 85] ? 184

What does the record list as microsomal CLint for CCN(CC)C(=O)[C@@H]1C=C2c3cccc4[nH]cc(c34)C[C@H]2N(Cc2cccnc2)C1 [Compound 55] ? 543

What does the record list as microsomal CLint for CC[C@@H](C)NC(=O)[C@@H]1C=C2c3cccc4[nH]cc(c34)C[C@H]2N(Cc2ccccc2)C1 [Compound 88] ? 774

What does the record list as microsomal CLint for CCN(CC)C(=O)[C@@H]1C=C2c3cccc4[nH]cc(c34)C[C@H]2N(CC2CCCCC2)C1 [Compound 89] ? 572

What does the record list as microsomal CLint for CCN(CC)C(=O)[C@@H]1C=C2c3cccc4[nH]cc(c34)C[C@H]2N(Cc2cocn2)C1 [Compound 73] ? 76.7

What does the record list as microsomal CLint for CCN(CC)C(=O)[C@@H]1C=C2c3cccc4[nH]cc(c34)C[C@H]2N(Cc2cccc3ccccc23)C1 [Compound 101] ? 483

What does the record list as microsomal CLint for CCN(CC)C(=O)[C@@H]1C=C2c3cccc4[nH]cc(c34)C[C@H]2N(CC2CCCC2)C1 [Compound 90] ? 649

What does the record list as microsomal CLint for CCN(CC)C(=O)[C@@H]1C=C2c3cccc4[nH]cc(c34)C[C@H]2N(Cc2ccc(F)c(OC)c2)C1 [Compound 60] ? 295
